Cited source: patent US20160030416A1

assay: Plasma kinetics, intravenous, CD-1 mice; format: in vivo, female CD-1 mice; conditions: female, CD-1, mouse, plasma; IV 1 mg/kg, 0.083 hr; read-out: Average Concentration of HGT3711
Recorded endpoint: concentration at 0.083 hr (ng/mL)
Number in ng/mL, nothing else.

State its concentration at 0.083 hr for this compound: Cc1cc(Cl)c(COc2cccc3c(-n4cc(F)cn4)cc(C)nc23)c(Cn2cccc(C#N)c2=O)n1 [CFMQ]
162

---

test: Pharmacokinetics, single oral gavage, CD-1 mice; assay type: in vivo, female CD-1 mice; conditions: female, CD-1, mouse, plasma, 100 mg/kg, 30 min, read-out: Average Concentration of HGT3711
Recorded endpoint: concentration at 30 min
Param answer (str): number followed by unit.

State its concentration at 30 min for this compound: Cc1cc(Cl)c(COc2cccc3c(-n4cc(F)cn4)cc(C)nc23)c(Cn2cccc(C#N)c2=O)n1 [CFMQ]
4100 ng/mL
